# ASSAY INFO: gradient 5% acetonitrile 3 min, to 50% in 2 min, to 85% in 15 min, held 3 min, 100 µL/min
# CONDITION DESCRIPTION: column: Zorbax Extend-C18 2.1 x 50 mm; eluents: water / acetonitrile, 0.1% formic acid
ASSAY METRIC: RP-LC retention time (s)

1. CSc1cccc(NC(=O)Cn2cccc(-c3nc(-c4ccc(F)cc4)no3)c2=O)c1
939
2. COc1cc2c(cc1OC)[C@@H](C(=O)N(C)c1ccc(Cl)cc1)[C@@H]1CCCCN1C2=O
719
3. O=C(C1CC1)N1CCc2sc(S(=O)(=O)NCc3cccs3)cc2C1
794
4. O=S(=O)(NCc1nc(-c2cccc(-c3ccn[nH]3)c2)no1)c1ccccc1
768
5. Cn1nc(-c2nnc(-c3ccccc3F)o2)c2c1CCN(S(=O)(=O)c1cc(F)ccc1F)C2
928
6. CCOC(=O)N1CCN(C(=O)C2CCN(c3ccc(Sc4ccc(C(C)C)cc4)nn3)CC2)CC1
896
7. Cc1cccc(NC(=O)c2ccc(=O)n(C)n2)n1
595
8. CN1CCN(CCCNC(=O)Cn2c3ccccc3c3cnn(C)c(=O)c32)CC1
560
9. Cc1ccc(C)c(S(=O)(=O)N2CCC3(CC2)NCCN=C3NCc2ccc(F)cc2)c1
772
10. O=C(NCCC1CCN(C(=O)Nc2cc(F)cc(F)c2)CC1)c1ccoc1
798
11. COc1ccc2[nH]cc(CCNC(=O)Cn3nc4c(cc3=O)CCCC4)c2c1
714
12. COc1ccc(OC)c(NC(=O)Cn2cnc3nc4c(cc3c2=O)CCCC4)c1
676
13. CCC(C)NC(=O)N1CC(Oc2cccc(-c3nc(C)no3)c2)C1 (centres undefined)
801
14. CCn1cc(S(=O)(=O)N2CC(Oc3ccc(-c4nc(C)no4)cc3)C2)cn1
844
15. CC(=O)N(C1CCOCC1)C1CCN(C(=O)Nc2ccccc2)CC1
655
16. CCN1CCN(c2cc(C(=O)O)c3cc(NS(=O)(=O)c4cc(F)ccc4F)ccc3n2)CC1
594
17. COc1cccc(-c2noc(C3CCCN3C(=O)Nc3ccc(OC)cc3OC)n2)c1 (centres undefined)
941
18. Cc1ccsc1CN1CCC(n2c(C)cnc2-c2ccncc2)C1 (centres undefined)
506
19. COc1ccc(-c2nnc(-c3cc(S(=O)(=O)N4CCC(C(=O)O)CC4)ccc3Cl)o2)cc1
875
20. NS(=O)(=O)c1ccc(CCNS(=O)(=O)c2cc(-c3ccno3)cs2)cc1
748
21. CCCNC(=O)N1CCN(Cc2nc3cccnc3n2-c2ccccc2)CC1
597
22. Fc1ccc2nc(Nc3nc(-c4ccncc4)cs3)sc2c1
588
23. COc1ccc(CNC(=O)Cn2nc3c(Oc4ccccc4C)nccn3c2=O)cc1
957
24. COc1ccc(-c2noc(C3CCCN3C(=O)c3ccccc3OC)n2)cc1 (centres undefined)
901
25. CCOC(=O)c1cccc(N2C=C(C(=O)N3CCCC3)S(=O)(=O)c3ccccc32)c1
802
26. COc1cccc(Cn2nnc(C(=O)O)c2C)c1
666
27. O=C(Cn1cnc2nc(N3CCCC(C(=O)NC4CC4)C3)sc2c1=O)Nc1cc(F)cc(F)c1 (centres undefined)
717
28. CCCC(=O)Nc1nc(-c2ccc(OC)cc2)c(C)s1
956
29. CCc1noc(-c2nc(-c3ccc(OC)cc3)no2)n1
986
30. COCCC(=O)N1CCC(Oc2nccnc2N2CCc3ccccc32)C1 (centres undefined)
797
31. Cc1ccc(N2CC(c3noc(C4CCC4)n3)CC2=O)cc1 (centres undefined)
914
32. Cc1ccccc1OCCCCn1c(CN2CCOCC2)nc2ccccc21
646
33. CN(C)c1cnc(-n2cc(NC(=O)CCCc3ccccc3)cn2)nc1
724
34. COc1ccc(C2=NCC(=O)N(CC(=O)Nc3cc(F)ccc3F)c3sccc32)cc1
702
35. Cc1ccccc1NC(=O)c1cnc2c(c1)c(=O)n(C)c(=O)n2-c1ccccc1
700
36. COC(=O)c1ccccc1Nc1c(-c2ccc3c(c2)OCO3)nc2cnccn12
932
37. COc1cccc(Cn2cccc(S(=O)(=O)N3CCCC3)c2=O)c1
807
38. COc1ccc(-c2noc(CC3CCN(C(=O)C4(c5ccc(OC)cc5)CC4)CC3)n2)cc1
1030
39. CC(O)CNC(=O)C1CCCN(c2ccc(Sc3ccc(Br)cc3)nn2)C1 (centres undefined)
688
